Exercise: state measured kon for each of the binders provided.
Target: T1, Human IL13Rα2 (human, UniProt Q14627 27-343, limits assumed)
T1 construct: also called human recombinant IL13Rα2; Human IL13Ra2
T1 sequence (looked up): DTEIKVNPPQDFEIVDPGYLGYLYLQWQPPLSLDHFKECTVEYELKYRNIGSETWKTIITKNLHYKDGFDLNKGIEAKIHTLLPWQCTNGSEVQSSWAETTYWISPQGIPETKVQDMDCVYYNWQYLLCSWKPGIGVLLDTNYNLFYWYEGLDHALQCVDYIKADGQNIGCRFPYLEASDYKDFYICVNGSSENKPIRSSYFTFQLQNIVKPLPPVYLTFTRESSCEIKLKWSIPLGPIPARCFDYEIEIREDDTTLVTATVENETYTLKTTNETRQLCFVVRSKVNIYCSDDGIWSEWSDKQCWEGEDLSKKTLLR
Experiment: SPR Biacore 8K affinity ranking, antibody supernatant Fc-captured, 100 nM IL13Rα2 analyte
Respond with the bare value in M⁻¹ s⁻¹.

Could you tell me which kon is on file for Humanized antibody VH4 + VL3 (antibody, human IgG1, kappa, V domains shown) VH: QVQLVQSGAEVKKPGASVKVSCKASGYTFSNYLMNWVRQATGQGLEWMGRIDPYDGDIDYNQNFKDRVTITRNTSISTAYMELSSLRSEDTAVYYCARGYGTAYGVDYWGQGTLVTVSS VL: EIVLTQSPATLSLSPGERATLSCRASESVDNYGISFMNWYQQKPGQAPRLLIYAASRQGSGIPARFSGSGSGTDFTLTISSLEPEDFAVYYCQQSKEVPWTFGGGTKLEIKR ?
769000

Please answer likewise for Humanized antibody VH1 + VL4 (antibody, human IgG1, kappa, V domains shown, also called U3621EI120 VH1+VL4) VH: QVQLVQSGAEVKKPGSSVKVSCKASGYTFSNYLMNWVRQAPGQGLEWMGRIDPYDGDIDYNQNFKDRVTITADKSTSTAYMELSSLRSEDTAVYYCARGYGTAYGVDYWGQGTLVTVSS VL: EIVMTQSPATLSVSPGERATLSCRASESVDNYGISFMNWYQQKPGQAPRLLIYAASRQGSGIPARFSGSGSGTEFTLTISSLQSEDFAVYYCQQSKEVPWTFGGGTKLEIKR
449000
